This collection of values is drawn from PubChem BioAssay.

- target: Torsin-1A-interacting protein 1 (Homo sapiens)
- assay.explanation: LAP1 binders from COS7 cell lysate, primary screen, small-molecule microarray, 635/667 nm fluorescence (AID 1116)
- run.conditions: COS7-hLAP1 lysate binding, 635 nm fluorescence, higher = more signal
Below, each of the compounds is paired with its reported composite z-score value.
readout.label: composite z-score

smiles	measured
CC(C)CNC(=O)[C@@]1(c2ccc([N+](=O)[O-])cc2)CC(=O)N(CC23CC4CC(CC(C4)C2)C3)[C@@H]1c1ccc(CO)cc1	1.96
COC(=O)C(CC#Cc1ccc2c(c1)[C@]1(C(=O)N2)[C@H](C(=O)NC[C@H](O)c2ccccc2)[C@H]2C(=O)O[C@H](c3ccccc3)[C@H](c3ccccc3)N2[C@@H]1c1ccc(OCCO)cc1)C(=O)OC	0.053
O=C1O[C@@H](c2ccccc2)[C@@H](c2ccccc2)N2[C@@H](c3ccc(OCCO)cc3)[C@]3(C(=O)Nc4ccccc43)[C@@H](C(=O)Nc3nc4ccccc4s3)[C@H]12	1.5
COCCOC(=O)N1C(=O)[C@@]2(c3cc(C#CCCO)ccc31)[C@H](C(=O)NC[C@H](O)c1ccccc1)[C@H]1C(=O)O[C@H](c3ccccc3)[C@H](c3ccccc3)N1[C@@H]2c1ccc(O)cc1	1.11
CC(C)C[C@@H]1NC(=O)[C@H]2C[C@@H](C(=O)NCCCCCNC(=O)CS)[C@@H](c3cccc(OCCO)c3)N2C1=O	0.698
CC(C)N1C(=O)C[C@@](C(=O)NCc2ccccc2)(c2ccc([N+](=O)[O-])cc2)[C@H]1c1ccc(CO)cc1	1.99
COCC(=C=CC[C@@H](O)c1ccc(CO)o1)CCO	2.23

* * *

- target: Torsin-1A-interacting protein 2 (Homo sapiens) (UniProt Q8NFQ8)
- Sequence (Q8NFQ8 whole entry, looked up): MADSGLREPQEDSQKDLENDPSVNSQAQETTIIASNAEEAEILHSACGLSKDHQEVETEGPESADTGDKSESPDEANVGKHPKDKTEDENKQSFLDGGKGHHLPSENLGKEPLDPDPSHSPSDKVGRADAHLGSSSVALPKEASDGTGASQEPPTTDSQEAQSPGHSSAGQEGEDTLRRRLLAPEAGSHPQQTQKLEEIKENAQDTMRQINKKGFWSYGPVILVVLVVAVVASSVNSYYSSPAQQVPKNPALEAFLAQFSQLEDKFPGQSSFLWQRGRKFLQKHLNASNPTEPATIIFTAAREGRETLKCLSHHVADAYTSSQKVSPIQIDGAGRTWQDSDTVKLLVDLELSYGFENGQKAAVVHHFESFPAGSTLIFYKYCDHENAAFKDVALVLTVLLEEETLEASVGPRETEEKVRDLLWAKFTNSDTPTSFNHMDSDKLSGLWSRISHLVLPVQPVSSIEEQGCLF
- assay.explanation: LULL1 binders on small-molecule microarray, primary screen, cell lysate, human LULL1 lysate, 635/667 nm fluorescence (AID 1092);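 also: probe is lysate of COS7 cells overexpressing human LULL1; score merges per-feature 667 nm fluorescence with signal-to-noise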
- run.conditions: hLULL1 lysate binding, 635 nm fluorescence, higher = more signal
Label scheme, based on composite z-score: interval 1 = under 1, interval 2 = from 1 up to 3, interval 3 = 3 and over

compound	target	classification
CC(C)N1C(=O)c2ccccc2[C@@H](C(=O)NCCCN(C)C)[C@@H]1c1ccc(CO)cc1	Torsin-1A-interacting protein 2 (Homo sapiens) (UniProt Q8NFQ8)	interval 2
O=C/C=C/c1ccc2c(c1)OCO2	Torsin-1A-interacting protein 2 (Homo sapiens) (UniProt Q8NFQ8)	interval 1
Cc1ccc(S[C@]2(C(=O)NCC(C)C)CC(=O)N(Cc3ccccc3)[C@@H]2c2ccc(CO)cc2I)cc1	Torsin-1A-interacting protein 2 (Homo sapiens) (UniProt Q8NFQ8)	interval 2
[N-]=[N+]=NCc1ccccc1C[C@@]1(C(=O)N2CCOCC2)N=C(c2ccc(OCCCO)cc2)O[C@@H]1c1ccccc1CN=[N+]=[N-]	Torsin-1A-interacting protein 2 (Homo sapiens) (UniProt Q8NFQ8)	interval 3
CC(C)=CCCC(C)=CC(O)C1C=CC2C(=O)N(c3ccccc3)C(=O)C2N1Nc1ccccc1 (stereo unspecified)	Torsin-1A-interacting protein 2 (Homo sapiens) (UniProt Q8NFQ8)	interval 2
CCN(CC)c1ccc(N2CC=CC34O[C@@H]5/C=C\CCCOC(=O)C5[C@H]3C(=O)N(C(CO)C(C)C)[C@@H]4C2=O)cc1 (stereo partly specified)	Torsin-1A-interacting protein 2 (Homo sapiens) (UniProt Q8NFQ8)	interval 2
O=C1OCCC=C[C@H]2OC34C=CCN(Cc5ccccc5)C(=O)[C@H]3N(CCCCCCO)C(=O)[C@@H]4C12 (stereo partly specified)	Torsin-1A-interacting protein 2 (Homo sapiens) (UniProt Q8NFQ8)	interval 3
CCOC(=O)[C@H]1C[C@H]2O[C@@]23C[C@H]1C(=O)N1CCCC1[C@@H]3O[Si](C)(C)C(C)(C)C (stereo partly specified)	Torsin-1A-interacting protein 2 (Homo sapiens) (UniProt Q8NFQ8)	interval 1
O=C1C2C=CC(C(O)c3ccc(-c4ccccc4)s3)N(n3cnnc3)C2C(=O)N1Cc1ccccc1 (stereo unspecified)	Torsin-1A-interacting protein 2 (Homo sapiens) (UniProt Q8NFQ8)	interval 2
CCOC(=O)C1=CCC(c2ccc([N+](=O)[O-])cc2)N(S(=O)(=O)c2ccc(C)cc2)C1 (stereo unspecified)	Torsin-1A-interacting protein 2 (Homo sapiens) (UniProt Q8NFQ8)	interval 2
COC(=O)C[C@H]1O[C@]2(C(=O)N(Cc3ccccc3)c3ccc(NC(C)=O)cc32)[C@@H](C)[C@@H]1[Si](C)(C)c1ccc(OC)cc1	Torsin-1A-interacting protein 2 (Homo sapiens) (UniProt Q8NFQ8)	interval 2
